# assayDetails: recombinant UMI read abundance after kanamycin selection (control-corrected) (log10(CPM+1)); higher = more efficient recombination; extreme values may be limits of the assay; sequences stand for … in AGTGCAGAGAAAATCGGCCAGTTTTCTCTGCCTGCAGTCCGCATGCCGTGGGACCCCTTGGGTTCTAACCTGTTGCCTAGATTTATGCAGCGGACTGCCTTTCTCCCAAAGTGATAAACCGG…AGGTTGGTTTCACT; site = the 11-nt donor;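 note: IS621 bridge recombinase in Escherichia coli cells against a fixed T5 target plasmid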
Threshold rule: recombinant UMI read abundance (log10) greater than or equal to 1 is MET; below that, NOT MET.

Consider the following illustrative entries.
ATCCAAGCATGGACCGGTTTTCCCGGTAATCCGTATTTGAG (site ATCCAACCTCT) :: NOT MET
ACCTTCTCATGGACCGGTTTTCCCGGTAATCCGTATTTGGG (site GCCTTCTCTCC) :: NOT MET
AGCCTGTCATGGACCGGTTTTCCCGGTAATCCGTATTTGAC (site AGCCTTTCTGT) :: NOT MET
AGATTCCCATGGACCGGTTTTCCCGGTAATCCGTATTTGTG (site AGATTCCCTCA) :: NOT MET
TCGTGACCATGGACCGGTTTTCCCGGTAATCCGTATTTGCA (site TCGTGACCTTG) :: NOT MET

Entry GCTAGTGCATGGACCGGTTTTCCCGGTAATCCGTATTTGGT (site CCTAGTGCTAC) : is its recombinant UMI read abundance (log10) no less than 1?
MET

Entry GCTCGTCCATGGACCGGTTTTCCCGGTAATCCGTATTTGAG (site GCTCGTCCTCT) : is its recombinant UMI read abundance (log10) no less than 1?
NOT MET

Entry TGGGCACCATGGACCGGTTTTCCCGGTAATCCGTATTTGCA (site CGGGCACCTTG) : is its recombinant UMI read abundance (log10) no less than 1?
NOT MET

Entry CCCTTCACATGGACCGGTTTTCCCGGTAATCCGTATTTGGG (site CCCTTCACTCC) : is its recombinant UMI read abundance (log10) no less than 1?
NOT MET

Entry CTTTTATCATGGACCGGTTTTCCCGGTAATCCGTATTTGAC (site CTTTTATCTGT) : is its recombinant UMI read abundance (log10) no less than 1?
NOT MET

Entry TGTTCGCCATGGACCGGTTTTCCCGGTAATCCGTATTTGTA (site TGTTCCCCTTA) : is its recombinant UMI read abundance (log10) no less than 1?
NOT MET

Entry AGGCACGCATGGACCGGTTTTCCCGGTAATCCGTATTTGGG (site AGGCACGCTCC) : is its recombinant UMI read abundance (log10) no less than 1?
MET

Entry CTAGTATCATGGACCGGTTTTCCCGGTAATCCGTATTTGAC (site CTTGGATCTGT) : is its recombinant UMI read abundance (log10) no less than 1?
NOT MET

Entry AGAAAGGCATGGACCGGTTTTCCCGGTAATCCGTATTTGTT (site AGAAAGGCTAG) : is its recombinant UMI read abundance (log10) no less than 1?
MET
